Listed next: entries and their corresponding viability, T/C.
Test system: 926638-142-R-J1-PDC complex spheroid viability;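 further: spheroids exposed to drugs for one week before readout; percent viability relative to DMSO vehicle control wells set as 100%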
RUN DESCRIPTION: Anticancer human tumor 926638-142-R-J1-PDC patient-derived endometrial carcinoma cell line growth inhibition [POLQ]
SETTINGS: second compound 0.0316 µM; first compound 0.316 µM; active compounds read low
The answer is to be given in %; state only the numeric part.

Check out these entries, answers already filled in.
CNCc1ccc(-c2[nH]c3cc(F)cc4c3c2CCNC4=O)cc1 + Nc1ccc(C#CCN(C(=O)Cc2ncc(C(F)(F)F)cc2C(F)(F)F)c2ccc(F)cc2)nn1 ... 91.2
C#Cc1c(F)ccc2cc(O)cc(-c3ncc4c(N5CC6CCC(C5)N6)nc(OCC56CCCN5CC(F)C6)nc4c3F)c12 (stereo unspecified) + COC1C(OC(N)=O)C(O)C(Oc2ccc3c(O)c(NC(=O)c4ccc(O)c(CC=C(C)C)c4)c(=O)oc3c2C)OC1(C)C ... 89
CCc1cc2c(N3CCc4c(cc(Cn5ccnc5)cc4-c4cn(C)nc4C(F)(F)F)C3=O)ccnc2c(OC)n1 + Nc1ccc(C#CCN(C(=O)Cc2ncc(C(F)(F)F)cc2C(F)(F)F)c2ccc(F)cc2)nn1 ... 59.6
CC(C)n1c(=O)n(C)c2cnc3cc(F)c(-c4ccc(OCCCN5CCCCC5)nc4)cc3c21 + Nc1ccc(C#CCN(C(=O)Cc2ncc(C(F)(F)F)cc2C(F)(F)F)c2ccc(F)cc2)nn1 ... 106

For O=c1[nH]cc(F)c(=O)[nH]1 + Nc1ccc(C#CCN(C(=O)Cc2ncc(C(F)(F)F)cc2C(F)(F)F)c2ccc(F)cc2)nn1 the compound record lists viability, T/C as 92.8

For O=c1[nH]cc(F)c(=O)[nH]1 + COC1C(OC(N)=O)C(O)C(Oc2ccc3c(O)c(NC(=O)c4ccc(O)c(CC=C(C)C)c4)c(=O)oc3c2C)OC1(C)C the compound record lists viability, T/C as 94.1

For CC1COCCN1c1cc(C2(O)CC3CCC(C2)O3)c2cnn(-c3ccn[nH]3)c2n1 (stereo unspecified) + Cc1cccc(N(C)C(=O)C2C(O)CCN2c2nc(C)cc(C(F)(F)F)c2C#N)c1 the compound record lists viability, T/C as 34.5

For CCc1cc2c(N3CCc4c(cc(Cn5ccnc5)cc4-c4cn(C)nc4C(F)(F)F)C3=O)cc(C)nc2c(OC)n1 + COC1C(OC(N)=O)C(O)C(Oc2ccc3c(O)c(NC(=O)c4ccc(O)c(CC=C(C)C)c4)c(=O)oc3c2C)OC1(C)C the compound record lists viability, T/C as 49.6

For C=CC(=O)N1CCN(c2nc(=O)n(-c3c(C)ccnc3C(C)C)c3nc(-c4c(O)cccc4F)c(F)cc23)C(C)C1 (stereo unspecified) + Nc1ccc(C#CCN(C(=O)Cc2ncc(C(F)(F)F)cc2C(F)(F)F)c2ccc(F)cc2)nn1 the compound record lists viability, T/C as 98.1

For C#Cc1c(F)ccc2cc(O)cc(-c3ncc4c(N5CC6CCC(C5)N6)nc(OCC56CCCN5CC(F)C6)nc4c3F)c12 (stereo unspecified) + Nc1ccc(C#CCN(C(=O)Cc2ncc(C(F)(F)F)cc2C(F)(F)F)c2ccc(F)cc2)nn1 the compound record lists viability, T/C as 83.7

For O=C(Nc1ccc(O)c(NS(=O)(=O)c2ccc(F)cc2)c1)c1ccc(-c2ccccc2)cc1 + Cc1cccc(N(C)C(=O)C2C(O)CCN2c2nc(C)cc(C(F)(F)F)c2C#N)c1 the compound record lists viability, T/C as 91.6
